Reference source for all entries: paper PMC6586154

- assayRemarks: Ertugliflozin-metformin drug-drug interaction study, plasma pharmacokinetics
- conditionsUsed: both, human, plasma, oral, 15 mg
observationType: Cmax (ng/mL)
Quick note: give the figure in ng/mL, leave out the unit.

Reported Cmax, molecule CCOc1ccc(Cc2cc([C@]34OC[C@](CO)(O3)[C@@H](O)[C@H](O)[C@H]4O)ccc2Cl)cc1 : ____ 279

* * *

- assayRemarks: Ertugliflozin-metformin drug-drug interaction study, plasma pharmacokinetics
- conditionsUsed: both, human, plasma, oral, 15 mg
observationType: Tmax (h)
Quick note: give the figure in h, leave out the unit.

Reported Tmax, molecule CCOc1ccc(Cc2cc([C@]34OC[C@](CO)(O3)[C@@H](O)[C@H](O)[C@H]4O)ccc2Cl)cc1 [Ertugliflozin] : ____ 1.02

* * *

- assayRemarks: Ertugliflozin-metformin drug-drug interaction study, plasma pharmacokinetics
- conditionsUsed: both, human, plasma, oral, 15 mg
observationType: AUC(0-t) (ng·h/mL)
Quick note: give the figure in ng·h/mL, leave out the unit.

Reported AUC(0-t), compound CCOc1ccc(Cc2cc([C@]34OC[C@](CO)(O3)[C@@H](O)[C@H](O)[C@H]4O)ccc2Cl)cc1 [Ertugliflozin] : ____ 1380

* * *

- assayRemarks: Ertugliflozin-glimepiride drug-drug interaction study, plasma pharmacokinetics
- Assay type: in vivo, human
- conditionsUsed: both, human, plasma, oral, 15 mg
observationType: half-life
Please answer using a numeric value trailed by its unit.

Reported half-life, molecule CCOc1ccc(Cc2cc([C@]34OC[C@](CO)(O3)[C@@H](O)[C@H](O)[C@H]4O)ccc2Cl)cc1 : ____ 10.6 h

* * *

- assayRemarks: Ertugliflozin-glimepiride drug-drug interaction study, plasma pharmacokinetics
- Type: in vivo, human
- conditionsUsed: both, human, plasma, oral, 15 mg
observationType: AUC(0-t) (ng·h/mL)
Quick note: give the figure in ng·h/mL, leave out the unit.

Reported AUC(0-t), compound CCOc1ccc(Cc2cc([C@]34OC[C@](CO)(O3)[C@@H](O)[C@H](O)[C@H]4O)ccc2Cl)cc1 : ____ 1230

* * *

- assayRemarks: Ertugliflozin-sitagliptin drug-drug interaction study, plasma pharmacokinetics
- Type: in vivo, human
- conditionsUsed: human, plasma, oral, 15 mg
observationType: AUC(0-t) (ng·h/mL)
Quick note: give the figure in ng·h/mL, leave out the unit.

Reported AUC(0-t), compound CCOc1ccc(Cc2cc([C@]34OC[C@](CO)(O3)[C@@H](O)[C@H](O)[C@H]4O)ccc2Cl)cc1 [Ertugliflozin] : ____ 1430

* * *

- assayRemarks: Ertugliflozin plasma PK summarized across all 4 DDI studies
- Type: in vivo
- conditionsUsed: human, oral, 15 mg
observationType: half-life

Reported half-life, compound CCOc1ccc(Cc2cc([C@]34OC[C@](CO)(O3)[C@@H](O)[C@H](O)[C@H]4O)ccc2Cl)cc1 : ____ 10.6 to 12.6 h

* * *

- assayRemarks: Ertugliflozin-simvastatin drug-drug interaction study, plasma pharmacokinetics
- conditionsUsed: both, human, in vivo, 15 mg
observationType: AUC(0-t) (ng·h/mL)
Quick note: give the figure in ng·h/mL, leave out the unit.

Reported AUC(0-t), molecule CCOc1ccc(Cc2cc([C@]34OC[C@](CO)(O3)[C@@H](O)[C@H](O)[C@H]4O)ccc2Cl)cc1 [Ertugliflozin] : ____ 1380

* * *

- assayRemarks: Ertugliflozin-simvastatin drug-drug interaction study, plasma pharmacokinetics
- conditionsUsed: both, human, in vivo, 15 mg
observationType: Cmax (ng/mL)
Quick note: give the figure in ng/mL, leave out the unit.

Reported Cmax, compound CCOc1ccc(Cc2cc([C@]34OC[C@](CO)(O3)[C@@H](O)[C@H](O)[C@H]4O)ccc2Cl)cc1 [Ertugliflozin] : ____ 273

* * *

- assayRemarks: Ertugliflozin-sitagliptin drug-drug interaction study, plasma pharmacokinetics
- Assay type: in vivo, human
- conditionsUsed: human, plasma, oral, 100 mg
observationType: Cmax (µM)
Quick note: give the figure in µM, leave out the unit.

Reported Cmax, molecule N[C@@H](CC(=O)N1CCn2c(nnc2C(F)(F)F)C1)Cc1cc(F)c(F)cc1F [Sitagliptin, reference compound] : ____ 0.814

* * *

- assayRemarks: Ertugliflozin-metformin drug-drug interaction study, plasma pharmacokinetics
- conditionsUsed: both, human, plasma, oral, 15 mg
observationType: half-life (h)
Quick note: give the figure in h, leave out the unit.

Reported half-life, compound CCOc1ccc(Cc2cc([C@]34OC[C@](CO)(O3)[C@@H](O)[C@H](O)[C@H]4O)ccc2Cl)cc1 [Ertugliflozin] : ____ 11.8

* * *

- assayRemarks: Ertugliflozin-sitagliptin drug-drug interaction study, plasma pharmacokinetics
- Type: in vivo, human
- conditionsUsed: both, human, plasma, oral, 100 mg
observationType: half-life (h)
Quick note: give the figure in h, leave out the unit.

Reported half-life, compound N[C@@H](CC(=O)N1CCn2c(nnc2C(F)(F)F)C1)Cc1cc(F)c(F)cc1F [Sitagliptin, reference compound] : ____ 11

* * *

- assayRemarks: Ertugliflozin-glimepiride drug-drug interaction study, plasma pharmacokinetics
- Type: in vivo, human
- conditionsUsed: both, human, plasma, po, 1 mg
observationType: AUC(0-inf)
Please answer using a numeric value trailed by its unit.

Reported AUC(0-inf), compound CCC1=C(C)CN(C(=O)NCCc2ccc(S(=O)(=O)NC(=O)N[C@H]3CC[C@H](C)CC3)cc2)C1=O [Glimepiride] : ____ 249 ng·h/mL

* * *

- assayRemarks: Ertugliflozin-sitagliptin drug-drug interaction study, plasma pharmacokinetics
- Assay type: in vivo, human
- conditionsUsed: human, plasma, po, 15 mg
observationType: AUC(0-inf) (ng·h/mL)
Quick note: give the figure in ng·h/mL, leave out the unit.

Reported AUC(0-inf), compound CCOc1ccc(Cc2cc([C@]34OC[C@](CO)(O3)[C@@H](O)[C@H](O)[C@H]4O)ccc2Cl)cc1 [Ertugliflozin] : ____ 1460

* * *

- assayRemarks: Ertugliflozin-sitagliptin drug-drug interaction study, plasma pharmacokinetics
- Format: in vivo, human
- conditionsUsed: human, plasma, po, 100 mg
observationType: AUC(0-inf) (µM·h)
Quick note: give the figure in µM·h, leave out the unit.

Reported AUC(0-inf), compound N[C@@H](CC(=O)N1CCn2c(nnc2C(F)(F)F)C1)Cc1cc(F)c(F)cc1F [Sitagliptin, reference compound] : ____ 7.02

* * *

- assayRemarks: Ertugliflozin-glimepiride drug-drug interaction study, plasma pharmacokinetics
- Format: in vivo, human
- conditionsUsed: both, human, plasma, oral, 15 mg
observationType: Tmax (h)
Quick note: give the figure in h, leave out the unit.

Reported Tmax, compound CCOc1ccc(Cc2cc([C@]34OC[C@](CO)(O3)[C@@H](O)[C@H](O)[C@H]4O)ccc2Cl)cc1 : ____ 2

* * *

- assayRemarks: Ertugliflozin-glimepiride drug-drug interaction study, plasma pharmacokinetics
- Assay type: in vivo, human
- conditionsUsed: both, human, plasma, oral, 1 mg
observationType: Cmax (ng/mL)
Quick note: give the figure in ng/mL, leave out the unit.

Reported Cmax, molecule CCC1=C(C)CN(C(=O)NCCc2ccc(S(=O)(=O)NC(=O)N[C@H]3CC[C@H](C)CC3)cc2)C1=O [Glimepiride] : ____ 34.4

* * *

- assayRemarks: Ertugliflozin plasma PK summarized across all 4 DDI studies
- Assay type: in vivo
- conditionsUsed: human, oral, 15 mg
observationType: Tmax

Reported Tmax, compound CCOc1ccc(Cc2cc([C@]34OC[C@](CO)(O3)[C@@H](O)[C@H](O)[C@H]4O)ccc2Cl)cc1 [Ertugliflozin] : ____ 1 to 3 h
